The entries below are paired with their reported pIC50.
# Tested on: norepinephrine (NE) uptake [ノルエピネフリン(NE)の取り込み]
# assay summary: norepinephrine (NE) uptake inhibition
# Format: biochemical
# measurement parameters: rat cerebral cortex, 3H-NE as substrate
For clarity, pIC50 is expressed as the negative log10 of concentration in mol/L.

> print(dat)
                                   compound  readout.kind  reported.result
1  CCCN1CCCCC12CCc1cc(OCc3ccccc3F)ccc1C2 (stereo not shown)         pIC50             7.05
2  COc1ccc2c(c1)CCC1(CCCCN1CCCCN1C(=O)c3ccccc3C1=O)C2 (stereo not shown)         pIC50             6.30
3  COc1cccc(N2CCN(CCN3CCCCC34CCc3cc(OC)ccc3C4)CC2)c1 (stereo not shown)         pIC50             5.32

Consider the record given below.
Entry COc1ccc2c(c1)CCC1(CCCCN1CCOc1ccccc1)C2 (stereo not shown) needs its pIC50 filled in; supply it. 6.08
